Data provenance: paper PMC11781366

Target: D. melanogaster STING (dSTING) (Drosophila melanogaster)
Sequence (A0A0B4LFY9 1-343): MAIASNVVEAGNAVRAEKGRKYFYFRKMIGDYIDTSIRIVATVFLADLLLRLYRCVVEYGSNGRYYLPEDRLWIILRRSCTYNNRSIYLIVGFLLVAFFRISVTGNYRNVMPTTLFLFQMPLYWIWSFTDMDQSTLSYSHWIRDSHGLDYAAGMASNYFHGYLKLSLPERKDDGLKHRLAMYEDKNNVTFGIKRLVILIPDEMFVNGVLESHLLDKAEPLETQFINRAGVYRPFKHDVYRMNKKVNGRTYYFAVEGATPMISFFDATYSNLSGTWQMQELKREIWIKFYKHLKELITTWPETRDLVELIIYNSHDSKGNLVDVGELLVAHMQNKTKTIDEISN
Assay: microscale thermophoresis in lysates of transfected S2 cells
measure: Kd (µM)
Please give a number only; it is taken to be in µM.

Hello, please tell me recorded Kd for this one: Nc1nc2c(ncn2[C@@H]2O[C@@H]3COP(=O)(O)O[C@@H]4[C@H](O)[C@@H](COP(=O)(O)O[C@H]3[C@H]2O)O[C@H]4n2cnc3c(=O)[nH]c(N)nc32)c(=O)[nH]1
28.2
